- Measured on: GSK-3α/β
- Protocol description: GSK-3α/β in vitro kinase assay (GS-1 peptide)
- Experimental context: Table 4; ATP 15 μM, triplicate; <50% inhibition at 10 μM = IC50 >10 μM
pIC50: −log10 of the molar value.
Endpoint: pIC50

So for COc1ccc2c(c1)[nH]c1c(C)nccc12 [Harmine, reference compound] , the logged pIC50 turned out to be < 5.00

Record O=c1c2c(ccc3nc(-c4cccnc4)sc32)ncn1C1CCC1 [4d] . Reported pIC50: < 5.00

For O=c1c2c(ccc3nc(-c4cccnc4)sc32)ncn1Cc1ccccc1 [3a] the compound record lists pIC50 as 5.43

compound COc1ncccc1-c1nc2ccc3ncn(C4CC4)c(=O)c3c2s1 [compound 10] , pIC50 observed: ≤ 5.00

pIC50 recorded for this compound, O=c1c2c(ccc3nc(-c4cccnc4)sc32)ncn1C1CC1 [4c] , is 7.17

Given item O=c1c2c(ccc3nc(-c4cnccn4)sc32)ncn1Cc1ccccc1 [3b] , the value recorded as its pIC50 is 5.22

For reference, reported pIC50 for Cn1cnc2ccc3nc(-c4cccnc4)sc3c2c1=O [4a] stands at < 5.00

O=c1c2c(ccc3nc(-c4cccnc4)sc32)ncn1C1CCCC1 [4e] has a reported pIC50 of < 5.00

// recorded pIC50 for CC(C)n1cnc2ccc3nc(-c4cccnc4)sc3c2c1=O [4b] : < 5.00

Looking up O=c1c2c(ccc3nc(-c4cccnc4)sc32)ncn1C1CCCCC1 [4f] , I see its pIC50 listed as < 5.00
